Just for reference, PubChem BioAssay (NCI) is where these values come from.

- Tested on: UACC-257 melanoma
- Measurement notes: NCI tumour cell line growth inhibition, 48 h
Experimental endpoint: TGI

Can you look up the measured TGI of C=CC/C(C(=O)OC)=C(/C(=O)OC)N(CCC)CCC for me?
> 100 µM

Can you look up the measured TGI of C(=Nc1ccc(-c2nc3ccccc3s2)cc1)c1ccco1 for me?
> 100 µM

Can you look up the measured TGI of Brc1ccc2c3c1[C@@H]1O[C@@H]1c1cccc(c1-3)[C@@H]1O[C@H]21 for me?
98.4 µM

Can you look up the measured TGI of CN=C1NC(=O)/C(=C/c2ccc3ncccc3c2)S1 for me?
> 25 µM

Can you look up the measured TGI of Cc1cccc(C(C)(C)C)c1NC(=O)C(=O)Cc1nc2ccccc2s1 for me?
> 100 µM

Can you look up the measured TGI of CC1CC(C#N)=C2NCCCCN2C1=O (stereo not drawn) for me?
> 100 µM

Can you look up the measured TGI of O=C(CCc1ccc(O)cc1)c1c(O)cc(O)cc1OC1OC(CO)C(O)C(O)C1O (stereo not drawn) for me?
> 100 µM

Can you look up the measured TGI of CCn1c(=O)c2c3cc(O)ccc3oc2c2ccc(O)cc21 for me?
> 100 µM

* * *

- Tested on: SK-MEL-5 melanoma
- Measurement notes: NCI tumour cell line growth inhibition, 48 h
What TGI was measured for each of the following?

Can you look up the measured TGI of O=C1C(Br)=Cc2c(Cl)sc(Cl)c21 for me?
> 53.7 µM

Can you look up the measured TGI of N#Cc1cnn2ccn(C3OC(COC(=O)c4ccccc4)C(OC(=O)c4ccccc4)C3OC(=O)c3ccccc3)c12 (stereo unspecified) for me?
> 21.5 µM

Can you look up the measured TGI of O=c1nc2c(c(-c3cccc(Cl)c3)[nH]1)COC/C2=C\c1cccc(Cl)c1 for me?
> 100 µM

Can you look up the measured TGI of CSc1c(C(=O)Nc2ccc(C)cc2)c(N)[nH]c(=O)c1C#N for me?
> 100 µM

Can you look up the measured TGI of O=C(O)CNC(=O)c1ccc([As](=O)(O)O)cc1 for me?
> 100 µM

Can you look up the measured TGI of COc1cccc(-c2nc(-c3cnccn3)n(Cc3ccccc3)n2)c1 for me?
> 100 µM
